Tested on: SR (Other Blood Carcinomas)
Experiment: Bliss excess, mean over the matrix (fraction); higher = more synergy;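 further: after 72 h of two-drug dosing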

Molecule | Test system | Bliss excess
Cc1nc(-c2cn3c(n2)-c2ccc(-c4cnn(C(C)(C)C(N)=O)c4)cc2OCC3)n(C(C)C)n1 [Taselisib] + O=C(Nc1ccc2[nH]nc(-c3ccncc3)c2c1)[C@@H]1CCN(CC(=O)N2CCN(c3ccc(-c4ncccn4)cc3)CC2)C1 [SCH772984] (first compound max 10 µM, 7x7, partner max 5 µM) | SR (Other Blood Carcinomas) | 0.177
CC(=O)Nc1cccc(-n2c(=O)n(C3CC3)c(=O)c3c(Nc4ccc(I)cc4F)n(C)c(=O)c(C)c32)c1 [Trametinib] + Cc1nc(-c2cn3c(n2)-c2ccc(-c4cnn(C(C)(C)C(N)=O)c4)cc2OCC3)n(C(C)C)n1 [Taselisib] (first compound max 1 µM, 7x7, partner max 10 µM) | SR (Other Blood Carcinomas) | 0.22
CC1(C)CCC(CN2CCN(c3ccc(C(=O)NS(=O)(=O)c4ccc(NCC5CCOCC5)c([N+](=O)[O-])c4)c(Oc4cnc5[nH]ccc5c4)c3)CC2)=C(c2ccc(Cl)cc2)C1 [Venetoclax] + COc1cc(Nc2ncc3c(n2)-c2ccc(Cl)cc2C(c2c(F)cccc2OC)=NC3)ccc1C(=O)O [Alisertib] (first compound max 1 µM, 7x7, partner max 10 µM) | SR (Other Blood Carcinomas) | 0.013

----------
Test system: ES1 (Ewing's Sarcoma)
Assay: Bliss excess, mean over the matrix (fraction); higher = more synergy

Molecule | Bliss excess
Cn1cnc2c(F)c(Nc3ccc(Br)cc3Cl)c(C(=O)NOCCO)cc21 [Selumetinib] + C=CCn1c(=O)c2cnc(Nc3ccc(N4CCN(C)CC4)cc3)nc2n1-c1cccc(C(C)(C)O)n1 [AZD1775] (first compound max 10 µM, partner max 1 µM) | -0.0255
CCc1c2c(nc3ccc(O)cc13)-c1cc3c(c(=O)n1C2)COC(=O)[C@]3(O)CC [SN-38] + CN(C)CCCOc1ccc(-c2ccc3ncc4c(c3c2)n(C2CCOCC2)c(=O)n4C)cn1 [AZD0156] (first compound max 0.3 µM, 7x7, partner max 1 µM) | 0.0784
Cc1cc2ncnn2cc1Nc1ncc2c(n1)n(C1CCOCC1)c(=O)n2C [AZD7648] + C[C@@H]1COCCN1C2=NC(=NC(=C2)C3(CC3)[S@](=N)(=O)C)C4=C5C=CNC5=NC=C4 [AZD6738] (first compound max 10 µM, 7x7, partner max 10 µM) | -0.0001
COc1nnc2ccc(N3CCC(c4ccc(OCCN5CCN(C)C(=O)[C@H]5C)cc4)CC3)nn12 [AZD5153] + Cn1cnc2c(F)c(Nc3ccc(Br)cc3Cl)c(C(=O)NOCCO)cc21 [Selumetinib] (first compound max 1 µM, 7x7, partner max 10 µM) | -0.0511
CCN(CCO)CCCOc1ccc2c(Nc3cc(CC(=O)Nc4cccc(F)c4)[nH]n3)ncnc2c1 [AZD2811] + O=C(c1cc(Cc2n[nH]c(=O)c3ccccc23)ccc1F)N1CCN(C(=O)C2CC2)CC1 [Olaparib] (first compound max 1 µM, 7x7, partner max 10 µM) | 0.0749
CC(=O)c1c(C)c2cnc(Nc3ccc(N4CCNCC4)cn3)nc2n(C2CCCC2)c1=O [Palbociclib] + Cc1c2c(nn1C)CSCc1cc(n(C)n1)CSc1cc(c3ccccc3c1)OCCCc1c(C(=O)O)n(C)c3c-2c(Cl)ccc13 [AZD5991] (first compound max 10 µM, 7x7, partner max 1 µM) | -0.0169
CC1(C)CCC(CN2CCN(c3ccc(C(=O)NS(=O)(=O)c4ccc(NCC5CCOCC5)c([N+](=O)[O-])c4)c(Oc4cnc5[nH]ccc5c4)c3)CC2)=C(c2ccc(Cl)cc2)C1 [Venetoclax] + COc1cc(Nc2ncc3c(n2)-c2ccc(Cl)cc2C(c2c(F)cccc2OC)=NC3)ccc1C(=O)O [Alisertib] (first compound max 1 µM, 7x7, partner max 10 µM) | 0.0385
